# conditions: in DMF, 283.15 K
measured_metric: solubility (mole fraction)
# respond with the number and nothing more

Please report solubility (mole fraction) for the following compound: "CC(=O)Nc1cccc(N)c1"
0.043

====

# conditions: in acetonitrile, 298.15 K
measured_metric: solubility (mole fraction)
# respond with the number and nothing more

Please report solubility (mole fraction) for the following molecule: "CC(=O)Nc1cccc(N)c1"
0.0535

====

# conditions: in water, 283.15 K
measured_metric: solubility (mole fraction)
# respond with the number and nothing more

Please report solubility (mole fraction) for the following molecule: "CC(=O)Nc1cccc(N)c1"
0.039

====

# conditions: in acetone, 318.15 K
measured_metric: solubility (mole fraction)

Please report solubility (mole fraction) for the following molecule: "CC(=O)Nc1cccc(N)c1"
0.27

====

# conditions: in methanol, 303.15 K
measured_metric: solubility (mole fraction)
# respond with the number and nothing more

Please report solubility (mole fraction) for the following compound: "CC(=O)Nc1cccc(N)c1"
0.274

====

# conditions: in water, 278.15 K
measured_metric: solubility (mole fraction)
# respond with the number and nothing more

Please report solubility (mole fraction) for the following molecule: "CC(=O)Nc1cccc(N)c1"
0.025

====

# conditions: in isopropanol, 313.15 K
measured_metric: solubility (mole fraction)
# respond with the number and nothing more

Please report solubility (mole fraction) for the following compound: "CC(=O)Nc1cccc(N)c1"
0.174

====

# conditions: in water, 293.15 K
measured_metric: solubility (mole fraction)
# respond with the number and nothing more

Please report solubility (mole fraction) for the following compound: "CC(=O)Nc1cccc(N)c1"
0.091

====

# conditions: in isopropanol, 323.15 K
measured_metric: solubility (mole fraction)
# respond with the number and nothing more

Please report solubility (mole fraction) for the following compound: "CC(=O)Nc1cccc(N)c1"
0.266

====

# conditions: in THF, 313.15 K
measured_metric: solubility (mole fraction)
# respond with the number and nothing more

Please report solubility (mole fraction) for the following compound: "CC(=O)Nc1cccc(N)c1"
0.568

====

# conditions: in THF, 318.15 K
measured_metric: solubility (mole fraction)
# respond with the number and nothing more

Please report solubility (mole fraction) for the following molecule: "CC(=O)Nc1cccc(N)c1"
0.653

====

# conditions: in water, 288.15 K
measured_metric: solubility (mole fraction)
# respond with the number and nothing more

Please report solubility (mole fraction) for the following compound: "CC(=O)Nc1cccc(N)c1"
0.06

====

# conditions: in DMF, 303.15 K
measured_metric: solubility (mole fraction)
# respond with the number and nothing more

Please report solubility (mole fraction) for the following compound: "CC(=O)Nc1cccc(N)c1"
0.166

====

# conditions: in isopropanol, 298.15 K
measured_metric: solubility (mole fraction)
# respond with the number and nothing more

Please report solubility (mole fraction) for the following molecule: "CC(=O)Nc1cccc(N)c1"
0.084

====

# conditions: in ethyl acetate, 303.15 K
measured_metric: solubility (mole fraction)

Please report solubility (mole fraction) for the following molecule: "CC(=O)Nc1cccc(N)c1"
0.063

====

# conditions: in water, 303.15 K
measured_metric: solubility (mole fraction)
# respond with the number and nothing more

Please report solubility (mole fraction) for the following compound: "CC(=O)Nc1cccc(N)c1"
0.19

====

# conditions: in ethyl acetate, 283.15 K
measured_metric: solubility (mole fraction)
# respond with the number and nothing more

Please report solubility (mole fraction) for the following compound: "CC(=O)Nc1cccc(N)c1"
0.038

====

# conditions: in acetonitrile, 293.15 K
measured_metric: solubility (mole fraction)
# respond with the number and nothing more

Please report solubility (mole fraction) for the following molecule: "CC(=O)Nc1cccc(N)c1"
0.0453

====

# conditions: in acetone, 303.15 K
measured_metric: solubility (mole fraction)
# respond with the number and nothing more

Please report solubility (mole fraction) for the following compound: "CC(=O)Nc1cccc(N)c1"
0.153

====

# conditions: in acetone, 278.15 K
measured_metric: solubility (mole fraction)
# respond with the number and nothing more

Please report solubility (mole fraction) for the following molecule: "CC(=O)Nc1cccc(N)c1"
0.05

====

# conditions: in THF, 298.15 K
measured_metric: solubility (mole fraction)
# respond with the number and nothing more

Please report solubility (mole fraction) for the following compound: "CC(=O)Nc1cccc(N)c1"
0.328

====

# conditions: in methanol, 288.15 K
measured_metric: solubility (mole fraction)
# respond with the number and nothing more

Please report solubility (mole fraction) for the following molecule: "CC(=O)Nc1cccc(N)c1"
0.105

====

# conditions: in DMF, 318.15 K
measured_metric: solubility (mole fraction)
# respond with the number and nothing more

Please report solubility (mole fraction) for the following molecule: "CC(=O)Nc1cccc(N)c1"
0.358

====

# conditions: in THF, 293.15 K
measured_metric: solubility (mole fraction)
# respond with the number and nothing more

Please report solubility (mole fraction) for the following compound: "CC(=O)Nc1cccc(N)c1"
0.256

====

# conditions: in methanol, 323.15 K
measured_metric: solubility (mole fraction)
# respond with the number and nothing more

Please report solubility (mole fraction) for the following compound: "CC(=O)Nc1cccc(N)c1"
0.613

====

# conditions: in acetonitrile, 323.15 K
measured_metric: solubility (mole fraction)
# respond with the number and nothing more

Please report solubility (mole fraction) for the following molecule: "CC(=O)Nc1cccc(N)c1"
0.128

====

# conditions: in DMF, 308.15 K
measured_metric: solubility (mole fraction)

Please report solubility (mole fraction) for the following compound: "CC(=O)Nc1cccc(N)c1"
0.22

====

# conditions: in isopropanol, 288.15 K
measured_metric: solubility (mole fraction)

Please report solubility (mole fraction) for the following compound: "CC(=O)Nc1cccc(N)c1"
0.048

====

# conditions: in acetone, 283.15 K
measured_metric: solubility (mole fraction)
# respond with the number and nothing more

Please report solubility (mole fraction) for the following compound: "CC(=O)Nc1cccc(N)c1"
0.063

====

# conditions: in water, 298.15 K
measured_metric: solubility (mole fraction)
# respond with the number and nothing more

Please report solubility (mole fraction) for the following compound: "CC(=O)Nc1cccc(N)c1"
0.133

====

# conditions: in water, 323.15 K
measured_metric: solubility (mole fraction)
# respond with the number and nothing more

Please report solubility (mole fraction) for the following molecule: "CC(=O)Nc1cccc(N)c1"
0.541

====

# conditions: in THF, 308.15 K
measured_metric: solubility (mole fraction)
# respond with the number and nothing more

Please report solubility (mole fraction) for the following compound: "CC(=O)Nc1cccc(N)c1"
0.487

====

# conditions: in acetonitrile, 288.15 K
measured_metric: solubility (mole fraction)
# respond with the number and nothing more

Please report solubility (mole fraction) for the following compound: "CC(=O)Nc1cccc(N)c1"
0.0382

====

# conditions: in ethyl acetate, 308.15 K
measured_metric: solubility (mole fraction)
# respond with the number and nothing more

Please report solubility (mole fraction) for the following compound: "CC(=O)Nc1cccc(N)c1"
0.074

====

# conditions: in ethyl acetate, 318.15 K
measured_metric: solubility (mole fraction)
# respond with the number and nothing more

Please report solubility (mole fraction) for the following molecule: "CC(=O)Nc1cccc(N)c1"
0.099

====

# conditions: in DMF, 293.15 K
measured_metric: solubility (mole fraction)
# respond with the number and nothing more

Please report solubility (mole fraction) for the following compound: "CC(=O)Nc1cccc(N)c1"
0.088

====

# conditions: in acetonitrile, 283.15 K
measured_metric: solubility (mole fraction)

Please report solubility (mole fraction) for the following compound: "CC(=O)Nc1cccc(N)c1"
0.0322

====

# conditions: in methanol, 318.15 K
measured_metric: solubility (mole fraction)
# respond with the number and nothing more

Please report solubility (mole fraction) for the following molecule: "CC(=O)Nc1cccc(N)c1"
0.53

====

# conditions: in isopropanol, 318.15 K
measured_metric: solubility (mole fraction)
# respond with the number and nothing more

Please report solubility (mole fraction) for the following compound: "CC(=O)Nc1cccc(N)c1"
0.218

====

# conditions: in acetonitrile, 278.15 K
measured_metric: solubility (mole fraction)
# respond with the number and nothing more

Please report solubility (mole fraction) for the following compound: "CC(=O)Nc1cccc(N)c1"
0.0283

====

# conditions: in THF, 303.15 K
measured_metric: solubility (mole fraction)
# respond with the number and nothing more

Please report solubility (mole fraction) for the following compound: "CC(=O)Nc1cccc(N)c1"
0.404

====

# conditions: in methanol, 283.15 K
measured_metric: solubility (mole fraction)
# respond with the number and nothing more

Please report solubility (mole fraction) for the following compound: "CC(=O)Nc1cccc(N)c1"
0.074

====

# conditions: in methanol, 298.15 K
measured_metric: solubility (mole fraction)
# respond with the number and nothing more

Please report solubility (mole fraction) for the following compound: "CC(=O)Nc1cccc(N)c1"
0.207

====

# conditions: in ethyl acetate, 313.15 K
measured_metric: solubility (mole fraction)

Please report solubility (mole fraction) for the following molecule: "CC(=O)Nc1cccc(N)c1"
0.085

====

# conditions: in acetonitrile, 318.15 K
measured_metric: solubility (mole fraction)
# respond with the number and nothing more

Please report solubility (mole fraction) for the following compound: "CC(=O)Nc1cccc(N)c1"
0.108

====

# conditions: in acetone, 293.15 K
measured_metric: solubility (mole fraction)
# respond with the number and nothing more

Please report solubility (mole fraction) for the following compound: "CC(=O)Nc1cccc(N)c1"
0.101
